# TEST SUMMARY: protein stability index of a GFP-peptide fusion (yeast GPS) (PSI 1-4); higher = more stable; sorted into four equal gates, so the index is relative within each strain
# ASSAY CONTEXT: san1∆
VALUE TYPE: protein stability index

These solved cases illustrate the format of a correct answer.
>>> result("LSFSWAILLIINLTQTY [NUT1]")
2.24
>>> result("QNPENLLSEKILQYFEK [SIR3]")
2.8
>>> result("TDDADDHINWEHIKQDY [NSL1]")
3.27
>>> result("ELWRKEQKLQTVLETLL [SMC3]")
2.7
>>> result("SKVSIEQRKEAAEFVLA [RPN7]")
2.45
>>> result("EQEIENNGLPMKNKAET [ITC1]")
3

The measured protein stability index associated with SFDSIDHSWFLLIGCKL [CSI1] reads 1.72

Briefly, protein stability index measured for INFERIDEVFSWYLNTF [GRR1] : 2.51

###

Recorded measurements of protein stability index, one per entry
# TEST SUMMARY: protein stability index of a GFP-peptide fusion (yeast GPS) (PSI 1-4); higher = more stable; sorted into four equal gates, so the index is relative within each strain
# ASSAY CONTEXT: pdr5∆
Would you mind answering with just the numeric figure?

Sample answers from the record:
>>> number("NKNGENKKIGKRPPEIM [SIR4]")
3.21
>>> number("AAQTLLQMDYKDDMKVD [PRE9]")
3.3
>>> number("FADKKRDCIDISIFSTP [PRP8]")
2.99

So for ILDNINHNGSALLIEVF [ITC1] , the logged protein stability index turned out to be 1.22

Briefly, protein stability index measured for TCAGGRLFNVVVQDSQT [SMC2] : 3.18

// VGGHNVTIREQINIMPS [SIR3] : protein stability index value = 2.8

The value of protein stability index measured for the sequence NFNASLQLTTNTEQGDS [SNM1] turned out to be 2.3

Looking up LFPEQQTKEIKTERVED [RPL6B] , I see its protein stability index listed as 3.29

###

// values below are reported protein stability index
# TEST SUMMARY: protein stability index of a GFP-peptide fusion (yeast GPS) (PSI 1-4); higher = more stable; sorted into four equal gates, so the index is relative within each strain
# ASSAY CONTEXT: pdr5∆
Lab note: jot the number down without any unit.

Below, each entry is followed by its recorded protein stability index result.
>>> number("QNENLPSDKSDSMVDKE [SSN2]")
2.64
>>> number("QGFSKDTFELIKTFLVD [YDL116W/NUP84]")
3.26
>>> number("RFISDLLWLVLIHPENF [SWI1]")
1.28
>>> number("IQSQVFESLYNSNDSVF [BRR2]")
2.31
>>> number("LISDQLLEFFELVFSKG [YML103C/NUP188]")
2.71
>>> number("RGKNEIIQNAQRDAVTL [RPO21]")
2.99

Turning now to a further record.
// FEFGNMKATSNTLEEFE [FAS2] : protein stability index value = 3.4

###

Some sequences, each annotated with its measured protein stability index.
# TEST SUMMARY: protein stability index of a GFP-peptide fusion (yeast GPS) (PSI 1-4); higher = more stable; sorted into four equal gates, so the index is relative within each strain
# ASSAY CONTEXT: ubr1∆
Answer using only a numeral; do not append any unit.

Some solved entries appear below for comparison.
>>> number("DLSVTPQKSSSKGFVFN [YAR002W/NUP60]")
3.06
>>> number("YYVGQVMRNNESTETGY [DIS3]")
3.23
>>> number("PVPSDSTRKKGGRRGRR [RPS14B]")
3.27

Briefly, protein stability index measured for SSLVRRNSVKLLSKLLL [YCS4] : 1.39

Sure, the documented protein stability index for DCNSALDQLLVLEKKTR [RPN5] is 2.44

Record NYTKDNEYYPMCEQALS [YCS4] , field protein stability index: 2.47

# protein stability index (sequence: ILDLKEFDRRILKKSLM [RTT102] ) is 3.22

The recorded protein stability index for VRQLYKGKKYQPKDLRA [RPL35A] is 2.92

Reported protein stability index ( SYKRIYGEYPPTKLLVS [PRE8] ) = 3.09

Record LTAIPILLEPIYEVDIT [SNU114] , field protein stability index: 2.19

protein stability index reading for DLCDVVESKFTEKIKSM [RPC19] : 3.44

Lookup result for ANRVTDKLTRVHDKIWC [PRE3] ; measured protein stability index: 2.34

Lab book: protein stability index of DDDISDDEEDEIEENCL [RPN4] noted as 3.32

Note to self: protein stability index recorded for MTIPHMKYAVSKTSENK [SIR2] was 3.06

###

# TEST SUMMARY: protein stability index of a GFP-peptide fusion (yeast GPS) (PSI 1-4); higher = more stable; sorted into four equal gates, so the index is relative within each strain
# ASSAY CONTEXT: pdr5∆
VALUE TYPE: protein stability index
Simply state the number, no unit and no words.

A selection of reference data follows.
>>> number("DEYQAAVEQRKKEKLDS [DPB4]")
3.34
>>> number("SENRFPGWDFETEEIDP [RPL5]")
2.78

Noted for FVYNKVNETEAILYTKP [YGR119C/NUP57] : its protein stability index reads 3.06

The reported value for ETIKSLEDPYKYHYKEE [CSN9] in terms of protein stability index is 3.13

Entry under test: VTIIEPKEEEPILAPSV [RPS3] . Its protein stability index was 2.59

Recorded result, DRGIANIRNNIESQNLD [SRB4] , protein stability index: 3.34

The value of protein stability index measured for the sequence RWDKEEYQSLMSLKDKL [SMC1] turned out to be 3.31

protein stability index reported for this sequence HMSTYLKIYKVGDIVDI [RPL21B] : 1.64

Sample LLGNCYSLRLINKEIFH [SRB8] ; protein stability index observed: 1.46

Briefly, protein stability index measured for IYEEVRAVLKSFLESVI [HHF1] : 3.13

###

# TEST SUMMARY: protein stability index of a GFP-peptide fusion (yeast GPS) (PSI 1-4); higher = more stable; sorted into four equal gates, so the index is relative within each strain
# ASSAY CONTEXT: pdr5∆
Binary classification by protein stability index, with 3 as an inclusive lower bound for rule met; all other cases are rule not met.

>>> class_label("LFKALKVILNERGGKFH [RGR1]")
"rule not met"

For this sequence, is measured protein stability index 3 or higher? LKELRIDNSPQAISYLH [GRR1]
rule not met

Check the entry VYSVDPLEKITDAYLDQ [PRP8] : does protein stability index equal or exceed 3?
rule met

State whether the measured protein stability index reaches 3, counting equality as reaching it, for LALINYGRQELADDLIT [RPN2]
rule not met

###

# TEST SUMMARY: protein stability index of a GFP-peptide fusion (yeast GPS) (PSI 1-4); higher = more stable; sorted into four equal gates, so the index is relative within each strain
# ASSAY CONTEXT: ubr1∆
VALUE TYPE: protein stability index
Answer with a bare number; do not write a unit.

Entry under test: STVAKNVSFVLPDEKSD [YCG1] . Its protein stability index was 3.01

So, HSNRCIVFSKKEPFPHS [CSN12] ? Its protein stability index was 2.69

###

# TEST SUMMARY: protein stability index of a GFP-peptide fusion (yeast GPS) (PSI 1-4); higher = more stable; sorted into four equal gates, so the index is relative within each strain
# ASSAY CONTEXT: doa10∆
Form field: protein stability index (one value per entry).

sequence QCCEFMTMLTPNYLHLV [YML103C/NUP188] , protein stability index observed: 2.23

// field: protein stability index; key: ILDTSQSESRQKRQLHD [SNU114] ; value = 3.23

// sample NTFNYDVKISNDFFDNG [RPN4] , its protein stability index was 1.94

###

# TEST SUMMARY: protein stability index of a GFP-peptide fusion (yeast GPS) (PSI 1-4); higher = more stable; sorted into four equal gates, so the index is relative within each strain
# ASSAY CONTEXT: san1∆
True means recorded protein stability index is 3 or above; False means it is below 3.

Answered examples (5):
>>> class_label("EDEEKILDNTENYDDTE [DSN1]")
"True"
>>> class_label("SFAIYSSTIDAPAFHTS [SRB8]")
"False"
>>> class_label("ENIEPLDPINLPLDSQD [PRP8]")
"False"
>>> class_label("ITKLNKEIRAFDKLLNI [SRB4]")
"True"
>>> class_label("LLFFNFSHSLTTILSFS [NUT1]")
"False"

In plain terms: is recorded protein stability index at least 3 for SGRTVISPDPNLSIDEV [RPO31] ?
False

###

Recorded measurements of protein stability index, one per entry
# TEST SUMMARY: protein stability index of a GFP-peptide fusion (yeast GPS) (PSI 1-4); higher = more stable; sorted into four equal gates, so the index is relative within each strain
# ASSAY CONTEXT: doa10∆
Please reply with the number alone, leaving off any unit.

>>> number("SELNEGNLSKREIQIDA [SRB8]")
2.69
>>> number("FGNSSPQLTFTHVANFM [YML103C/NUP188]")
2.97
>>> number("MTDIWNTLIPESSLTIS [ECM29]")
2.22
>>> number("QDVAAKCKEVGITAVHV [RPS14B]")
2.44

Sample TKRVEKPQLKFKSPIDN [RRP6] ; protein stability index observed: 2.88

Noted for TAVSFVSAAEDESLIRE [PRP28] : its protein stability index reads 2.77

The reported value for SNKKETKKKRKPTEVND [ITC1] in terms of protein stability index is 3.15

Reported protein stability index for GNKALEDEEEFSIFNYF [RPC34] was 3.21

Entry under test: IWPAEDALRRGMLAMAS [MED4] . Its protein stability index was 3.12

Field protein stability index (entry FPRDGKAPEAEQVLSAA [RPL13B] ) reads 3.3

protein stability index reported for this sequence KTSCVVEKRIGKIVSQR [RGR1] : 2.76

Measured protein stability index of AHCILGIGGDHAKFSPV [RPC40] : 2.59

Memo: LHEKYLTEGGSILEEKI [SMC1] , reported protein stability index: 3.02

Entry under test: PTSVKLLKTTVPIVSKK [POP3] . Its protein stability index was 3.21

Attribution: the supplement of paper PMC9732359
